Assay: Plasma pharmacokinetic analysis in rats, i.v. bolus
Format: in vivo
Settings: male, Sprague-Dawley, rat, plasma, iv; rats, single dose i.v. 10 mg/kg; read-out: AUC24 hr, Plasma
Recorded Endpoint: AUC(0-t) (ng·h/mL)
Give bare numbers, in ng·h/mL.

Data request: # get_value(readout='AUC(0-t)', item= Cc1csc(CN(C)C(=O)c2cccc(C(=O)N[C@@H](Cc3ccccc3)[C@H](O)CNCc3cncc(C(C)(C)F)c3)c2)n1 )
Data returned: 2580

====

Assay: Plasma pharmacokinetic analysis in rats, i.v. bolus
Format: in vivo
Details: male, Sprague-Dawley, rat, in vivo, iv, 10 mg/kg
Recorded Endpoint: concentration at 1 h (ng/mL)
Answers are plain numbers, in ng/mL.

Data request: Dear colleague, I am looking for the recorded concentration at 1 h of the following molecule: Cc1csc(CN(C)C(=O)c2cccc(C(=O)N[C@@H](Cc3ccccc3)[C@H](O)CNCc3cncc(C(C)(C)F)c3)c2)n1
Data returned: 548

Data origin, for the record: patent US20100286145A1
